Listing of entries alongside the reported IC50.
Target: FXIII (Homo sapiens (Human))
Sequence (P00488 39-732): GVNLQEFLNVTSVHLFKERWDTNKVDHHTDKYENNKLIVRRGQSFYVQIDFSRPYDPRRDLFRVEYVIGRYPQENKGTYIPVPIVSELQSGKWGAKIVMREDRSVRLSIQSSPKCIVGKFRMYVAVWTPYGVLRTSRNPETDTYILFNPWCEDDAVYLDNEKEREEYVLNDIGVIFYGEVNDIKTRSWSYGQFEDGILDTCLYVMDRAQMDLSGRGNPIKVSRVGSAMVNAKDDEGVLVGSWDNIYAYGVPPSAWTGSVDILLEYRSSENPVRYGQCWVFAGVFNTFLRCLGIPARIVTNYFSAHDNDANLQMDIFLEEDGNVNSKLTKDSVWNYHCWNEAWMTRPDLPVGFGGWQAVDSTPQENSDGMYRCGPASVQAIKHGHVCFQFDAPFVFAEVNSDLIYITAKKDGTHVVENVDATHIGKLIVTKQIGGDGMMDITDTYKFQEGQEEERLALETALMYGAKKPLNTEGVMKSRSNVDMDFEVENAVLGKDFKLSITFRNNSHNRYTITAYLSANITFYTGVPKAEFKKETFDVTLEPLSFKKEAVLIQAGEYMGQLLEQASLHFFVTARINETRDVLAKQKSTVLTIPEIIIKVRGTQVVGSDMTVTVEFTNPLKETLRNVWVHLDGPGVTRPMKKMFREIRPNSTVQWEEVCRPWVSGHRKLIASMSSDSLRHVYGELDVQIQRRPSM
Experiment: Inhibitory activity against FXIII (isopeptidase assay), Tables 3 and 4;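 further: FXIIIa activity read with a peptide substrate derived from the α2-antiplasmin N-terminal dodecapeptide, FXIII activated beforehand at room temperature, inhibitor-free wells with DMSO buffer as control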
Format: biochemical
Details: isopeptidase assay, Table 3; read-out: IC50 [nM] FXIII
*1 amine or outer side, *2 acyl side, *3 side chain or, on linkers, in order; H or OH if unused. Where a SMILES comes first, the peptide text is derived from it. [ ]: non-standard residue; d: D form. The star is where a group is joined. Isonicotinoyl(3-COOH) = O=C(O)c1cnccc1C(=O)*; X1 = COC(=O)/C=C/CC[C@H](N[*:1])C(=O)[*:2]; X3 = O=C(c1cnc(O)c([N+](=O)[O-])c1)*; Pro(4-oxo) = O=C1CN[C@H](C(=O)O)C1; Chg = N[C@H](C(=O)O)C1CCCCC1; Tle = CC(C)(C)[C@H](N)C(=O)O

>  <compound>
COC(=O)/C=C/CC[C@H](NC(=O)c1ccncc1C(=O)O)C(=O)N[C@H](C(=O)N1CC(=O)C[C@H]1C(=O)N[C@H](C(=O)N[C@H](C(=O)O)C1CCCCC1)C1CCCCC1)C(C)(C)C [34a/b] ({Isonicotinoyl(3-COOH)}-[X1][Tle][Pro(4-oxo)][Chg][Chg]-OH)

>  <IC50>
123 nM

$$$$
>  <compound>
COC(=O)/C=C/CC[C@H](NC(=O)c1cnc(O)c([N+](=O)[O-])c1)C(=O)N[C@H](C(=O)N1CC(=O)C[C@H]1C(=O)N[C@H](C(=O)N[C@H](C(N)=O)C1CCCCC1)C1CCCCC1)C(C)(C)C [Compound 6] (X3-[X1][Tle][Pro(4-oxo)][Chg][Chg]-NH2)

>  <IC50>
17 nM

$$$$

---

Assay: in vitro
*1 amine or outer side, *2 acyl side, *3 side chain or, on linkers, in order; H or OH if unused. Where a SMILES comes first, the peptide text is derived from it. [ ]: non-standard residue; d: D form. The star is where a group is joined. Benzoyl(3-COOH,5-NO2) = O=C(O)c1cc(C(=O)*)cc([N+](=O)[O-])c1; X1 = COC(=O)/C=C/CC[C@H](N[*:1])C(=O)[*:2]; Pro(4-oxo) = O=C1CN[C@H](C(=O)O)C1; Chg = N[C@H](C(=O)O)C1CCCCC1; Tle = CC(C)(C)[C@H](N)C(=O)O; αMeP = C[C@@]1(C(=O)O)CCCN1; X6 = Cc1cccc(C)c1OCC(C)N*; X7 = O=C(O)c1nccnc1C(=O)*
Catalogue of recovery at 2 h values
assay_readout: recovery at 2 h

>  <compound>
COC(=O)/C=C/CC[C@H](NC(=O)c1cc(C(=O)O)cc([N+](=O)[O-])c1)C(=O)N[C@H](C(=O)N1CC(=O)C[C@H]1C(=O)N[C@@H](CC(C)C)C(=O)N1CCC[C@@]1(C)C(=O)NC(C)COc1c(C)cccc1C)C(C)(C)C (some centres unmarked) [Compound 30] ({Benzoyl(3-COOH,5-NO2)}-[X1][Tle][Pro(4-oxo)]L[αMeP]-X6)

>  <assay_readout>
recovery at 2 h

>  <value_observed>
> 75%

$$$$
>  <compound>
COC(=O)/C=C/CC[C@H](NC(=O)c1nccnc1C(=O)O)C(=O)N[C@H](C(=O)N1CC(=O)C[C@H]1C(=O)N[C@H](C(=O)N[C@H](C(N)=O)C1CCCCC1)C1CCCCC1)C(C)(C)C [Compound 3] (X7-[X1][Tle][Pro(4-oxo)][Chg][Chg]-NH2)

>  <assay_readout>
recovery at 2 h

>  <value_observed>
> 75%

$$$$

Where do these numbers come from? They come from patent US11472838B2.
